- Assayed system: human BRD4 bromodomain II (Homo sapiens, UniProt O60885)
- Construct: human BRD4 bromodomain II [based on Genbank NM_058243, residues 349-460]; host or cells: E. coli
- Assay details: Bromodomain binding assay (AlphaScreen), BRD4 BDII
- Applied conditions: BRD4 BDII AlphaScreen assay; read-out: BRD4 BD2 IC50
Measure: IC50

Here are 4 molecules together with their reported answers.
Sample CCOc1cc(-c2cc(F)cc(-c3cccc(N4CCN(C(C)(C)C)CC4)c3)c2O)cc(Cl)c1-n1ccn(C)c1=O [Example 925] ; IC50 observed: 10 to 100 nM

Sample Cn1ccn(-c2ccc(-c3cc(F)cc(-c4cccc(N5CCN(C6CCOC6)CC5)c4)c3O)cc2Cl)c1=O (stereo not drawn) [Example 867] ; IC50 observed: 1 to 10 nM

Sample Cc1cc(-c2cc(F)cc(-c3cccc(N4CCN(C(C)(C)C)CC4)c3)c2O)ncc1-n1ccn(C)c1=O [Example 940] ; IC50 observed: > 100 nM

Sample Cc1cc(-c2ccc(-n3ccn(C)c3=O)c(Cl)c2)c(O)c(-c2cc(N3CCN(C(C)(C)C)CC3)n3ccnc3c2)n1 [Example 1002] ; IC50 observed: 1 to 10 nM

More entries:
Sample CC(=O)Nc1ccc(-c2cc(F)cc(-c3cccc(N4CCN(C(C)(C)C)CC4)c3)c2O)cc1Cl [Example 919] ; IC50 observed: 1 to 10 nM

Sample Cn1ccn(-c2ccc(-c3cccc(-c4cccc(N5CCN(C(C)(C)C)CC5)c4)c3O)cc2Cl)c1=O [Example 1021] ; IC50 observed: 0.01 to 1 nM

Sample Cc1cc(-c2ccc(-n3cc[nH]c3=O)c(Cl)c2)c(O)c(-c2cccc(N3CCN(C(C)(C)C)CC3)c2)n1 [Example 1035] ; IC50 observed: 10 to 100 nM

---

Reported values of GI50 for individual entries
- System: human SKM-1 acute myeloid leukemia cells
- Assay details: SKM-1 antiproliferation cell-based assay (ATPlite)
- Applied conditions: Homo sapiens, SKM-1, 96 h, SKM-1 antiproliferation assay, 4 days, Table C2

Here are 3 compounds together with their reported answers.
Sample C[C@@H]1CN(c2cc(-c3cc(F)cc(-c4ccc(-n5ccn(C)c5=O)c(Cl)c4)c3O)cc3[nH]c(=O)[nH]c23)CCN1 ; GI50 observed: 30 to 300 nM

Sample CN1CCN(c2ccc(-c3cc(F)cc(-c4cnc(OC5CCC(O)CC5)c(N5CCNCC5)c4)c3O)cc2Cl)C1=O (stereo not shown) ; GI50 observed: 30 to 300 nM

Sample CN1CCN(c2c(Cl)cc(-c3cc(F)cc(-c4ccnc(N5CCNCC5)c4)c3O)cc2C#N)C1=O ; GI50 observed: ≥ 3000 nM

Switching to the query record.
Sample CC(=O)Nc1ccc(-c2cccc(-c3cc(Cl)cc(N4CCNCC4)c3)c2O)cc1F ; GI50 observed: 300 to 3000 nM

---

- System: human SKM-1 acute myeloid leukemia cells
- Assay details: SKM-1 antiproliferation cell-based assay (ATPlite)
- Applied conditions: Homo sapiens, SKM-1, 96 h, SKM-1 antiproliferation assay, 4 days, Table C2
Measure: GI50

Here are 4 compounds together with their reported answers.
Sample Cn1ccn(-c2ccc(-c3cc(F)cc(-c4ccnc(N5CC[C@](C)(N)C5)c4)c3O)cc2Cl)c1=O [Example 711] ; GI50 observed: 0.3 to 30 nM

Sample Cn1ccn(-c2ccc(-c3cc(F)cc(-c4ccnc(N5CCCC(C)(N)C5)c4)c3O)cc2Cl)c1=O (stereo not shown) [Example 744] ; GI50 observed: 0.3 to 30 nM

Sample Cn1ccn(-c2ccc(-c3cc(F)cc(-c4cc(N5CC[C@H](N)C5)c5nccnc5c4)c3O)cc2Cl)c1=O [Example 548] ; GI50 observed: 0.3 to 30 nM

Sample Cn1ccn(-c2ccc(-c3cc(F)cc(-c4ccnc(N5CC(C)(C)C(C)(O)C5)c4)c3O)cc2Cl)c1=O (stereo not shown) [Example 783] ; GI50 observed: 0.3 to 30 nM

More entries:
Sample CC(=O)Nc1cc(-c2cc(F)cc(-c3ccc(-n4ccn(C)c4=O)c(Cl)c3)c2O)cc(N2CC[C@H](N(C)C)C2)n1 [Example 515] ; GI50 observed: 0.3 to 30 nM

Sample CN1CCN(c2ccc(-c3cc(OC(F)(F)F)cc(-c4ccnc(N5CCNCC5)c4)c3O)cc2Cl)C1=O [Example 309] ; GI50 observed: ≥ 3000 nM

Sample Cn1ccn(-c2ccc(-c3cc(F)cc(-c4ccnc(N5CC[C@H](O)C5)c4)c3O)cc2Cl)c1=O [Example 626] ; GI50 observed: 30 to 300 nM

---

Reported values of pIC50 for individual entries
- Assayed system: human BRD4 bromodomain II (Homo sapiens, UniProt O60885)
- Construct: human BRD4 bromodomain II [based on Genbank NM_058243, residues 349-460]; host or cells: E. coli
- Assay details: Bromodomain binding assay (AlphaScreen), BRD4 BDII
- Applied conditions: AlphaScreen assay, Table C2; read-out: BRD4 BDII IC50
pIC50: −log10 of the molar value.

Sample Cn1ccn(-c2ccc(-c3cc(F)cc(-c4ccc5ncc(C(C)(C)O)cc5c4)c3O)cc2Cl)c1=O [Example 796] ; pIC50 observed: 8.00 to 9.00

Sample Cn1ccn(-c2ccc(-c3cc(F)cc(-c4ccnc(N5CC(C)(C)C(C)(O)C5)c4)c3O)cc2Cl)c1=O (stereo not shown) [Example 783] ; pIC50 observed: 9.00 to 11.00

Sample Cn1ccn(-c2ccc(-c3cc(F)cc(-c4cc(N5CCNCC5)c5cn[nH]c5c4)c3O)cc2Cl)c1=O [Example 526] ; pIC50 observed: 8.00 to 9.00

Switching to the query record.
Sample CC(=O)N[C@@]1(C)CCN(c2cc(-c3cc(F)cc(-c4ccc(-n5ccn(C)c5=O)c(Cl)c4)c3O)cc(=O)n2C)C1 [Example 774] ; pIC50 observed: 8.00 to 9.00

---

Reported values of IC50 for individual entries
- Assayed system: human BRD4 bromodomain II (Homo sapiens)
- Construct: human BRD4 bromodomain II [based on Genbank NM_058243, residues 349-460]; host or cells: E. coli
- Assay details: Bromodomain binding assay (AlphaScreen), BRD4 BDII
- Applied conditions: AlphaScreen assay, Table C2; read-out: BRD4 BDII IC50

Here are 6 molecules together with their reported answers.
Sample COc1ncc(-c2cc(F)cc(-c3ccc(-n4ccn(C)c4=O)c(Cl)c3)c2O)cc1N1CCN(C(C)C)CC1 [Example 738] ; IC50 observed: 0.01 to 1 nM

Sample Cn1ccn(-c2c(Cl)cc(-c3cc(F)cc(-c4ccnc(N5CCNCC5)c4)c3O)cc2C#N)c1=O [Example 448] ; IC50 observed: 10 to 100 nM

Sample Cn1ccn(-c2ccc(-c3cc(F)cc(-c4cc(N5CC[C@@](C)(O)C5)n(C)c(=O)c4)c3O)cc2Cl)c1=O [Example 777] ; IC50 observed: 0.01 to 1 nM

Sample Cn1ccn(-c2ccc(-c3cc(F)cc(-c4ccnc(N5CCN(CCCO)CC5)c4)c3O)cc2Cl)c1=O [Example 617] ; IC50 observed: 0.01 to 1 nM

Sample Cn1ccn(-c2ccc(-c3cc(F)cc(-c4ccnc(N5C[C@@H](O)[C@H](O)C5)c4)c3O)cc2Cl)c1=O [Example 726] ; IC50 observed: 0.01 to 1 nM

Sample CC(C)N1CCN(c2cc(-c3cc(F)cc(-c4ccc(-n5ccn(C)c5=O)c(Cl)c4)c3O)ccn2)CC1 [Example 530] ; IC50 observed: 0.01 to 1 nM

Switching to the query record.
Sample Cn1ccn(-c2ccc(-c3cc(F)cc(-c4ccnc(N5CCNC(C6CC6)C5)c4)c3O)cc2Cl)c1=O (stereo not drawn) [Example 643] ; IC50 observed: 0.01 to 1 nM

---

Reported values of IC50 for individual entries
- Assayed system: human BRD4 bromodomain II (Homo sapiens, UniProt O60885)
- Construct: human BRD4 bromodomain II [based on Genbank NM_058243, residues 349-460]; host or cells: E. coli
- Assay details: Bromodomain binding assay (AlphaScreen), BRD4 BDII
- Applied conditions: AlphaScreen assay, Table C2; read-out: BRD4 BDII IC50

Sample CN(C)[C@H]1CCCN(c2cncc(-c3cc(F)cc(-c4ccc(-n5ccn(C)c5=O)c(Cl)c4)c3O)c2)C1 [Example 501] ; IC50 observed: 0.01 to 1 nM

Sample CC(=O)Nc1cc(-c2cc(F)cc(-c3ccc(-n4ccn(C)c4=O)c(Cl)c3)c2O)cc(N2CC[C@H](N)C2)n1 [Example 503] ; IC50 observed: 1 to 10 nM

Sample CC(=O)Nc1ccc(-c2cccc(-c3ccnc(N4CC(O)C4)c3)c2O)cc1F [Example 225] ; IC50 observed: > 100 nM

Sample CC(=O)Nc1ccc(-c2cccc(-c3ccc(NC(C)=O)c(F)c3)c2O)cc1 [Example 99] ; IC50 observed: 10 to 100 nM

More entries:
Sample CC(=O)Nc1ccc(-c2cccc(-c3ccc4ncncc4c3)c2O)cc1F [Example 142] ; IC50 observed: 10 to 100 nM

Sample CNC(=O)Nc1ccc(-c2cccc(-c3cc(N4CCNCC4)no3)c2O)cc1 [Example 149] ; IC50 observed: > 100 nM
